Each entry below carries its reported pIC50.
System: OVCAR3 cells
Assay: Cell proliferation study (Cell Titer Glo, 72 h)
Format: cell-based
Details: Homo sapiens, OVCAR-3, luminescence, read-out: IC50, inhibitory effect on cellular proliferation
Description: OVCAR3 (Cobioer, CBP60294) cell line in logarithmic growth phase was used for these experiments. The cell density was adjusted to 1.1×10^4/mL and the cells were inoculated into a 96-well cell culture plate (Corning, 3599), 95 μL per well (the number of cells per well was 1×10^3). […] To each well was added 50 μL Cell Tier Glo (Promega, G7573), and the plate was incubated at room temperature for 10 min, followed by luminescence detection with an enzyme marker. […]
pIC50: −log10 of the molar value.

Lab book: pIC50 of Cc1nc2c(F)cc(-c3nc(Nc4ccc(S(=O)(=O)NCCOCCOCCNc5cccc6c5C(=O)N(C5CCC(=O)NC5=O)C6=O)cc4)ncc3F)cc2n1C(C)C (stereo not drawn) [Compound 49] noted as 5.30 to 6.00

The reported pIC50 of the molecule CC(C)N1CCOc2c(F)cc(-c3nc(Nc4ccc(C5CCN(CCCCCCOc6cccc7c6C(=O)N(C6CCC(=O)NC6=O)C7=O)CC5)cn4)ncc3F)cc21 (stereo not drawn) [Compound 28] was < 5.00

// pIC50 lookup, molecule = C[C@@]1(O)CCC[C@H]1n1c(=O)ccc2cnc(NC3CCN(S(=O)(=O)C4CCN(C5CC6(CCN(c7cc8c(cc7F)C(=O)N(C7CCC(=O)NC7=O)C8=O)CC6)C5)CC4)CC3)nc21 (stereo partly drawn) [Compound 94] , result: 5.30 to 6.00

###

system: OVCAR3 cells; assay: Cell proliferation study (Cell Titer Glo, 72 h); format: cell-based; settings: Homo sapiens, OVCAR-3, luminescence, read-out: IC50, inhibitory effect on cellular proliferation
result-type: IC50

Would you please look over these solved cases?
[[record]]
compound = "Cc1nc2c(F)cc(-c3nc(Nc4ccc(S(=O)(=O)N5CCN(CC6CCN(c7ccc8c(c7)C(=O)N(C7CCC(=O)NC7=O)C8=O)CC6)CC5)cc4)ncc3F)cc2n1C(C)C (stereo not shown) [Compound 68]"
result_type = "IC50"
result = "0.101 to 1 µM"

[[record]]
compound = "C[C@@]1(O)CCC[C@H]1n1c(=O)ccc2cnc(NC3CCN(S(=O)(=O)C4CCN(CC5CCN(C6CN(c7cc8c(cc7F)C(=O)N(C7CCC(=O)NC7=O)C8=O)C6)CC5)CC4)CC3)nc21 (stereo partly shown) [Compound 95]"
result_type = "IC50"
result = "0.101 to 1 µM"

[[record]]
compound = "C[C@@]1(O)CCC[C@H]1n1c(=O)ccc2cnc(Nc3ccc(S(=O)(=O)C4CCN(C5CN(C6CCN(c7cc8c(cc7F)C(=O)N(C7CCC(=O)NC7=O)C8=O)CC6)C5)CC4)cc3)nc21 (stereo partly shown) [Compound 59]"
result_type = "IC50"
result = "1 to 5 µM"


Query CC(C)N1CCOc2c(F)cc(-c3nc(Nc4ccc(C5CCN(CCOCCOCCOCCNc6cccc7c6C(=O)N(C6CCC(=O)NC6=O)C7=O)CC5)cn4)ncc3F)cc21 (stereo not shown) [Compound 6] yields IC50 of 1 to 5 µM

// IC50 value for CC(C)N1CCOc2c(F)cc(-c3nc(NC4CCN(S(=O)(=O)C5CCN(C6CC7(CCN(c8cc9c(cc8F)C(=O)N(C8CCC(=O)NC8=O)C9=O)CC7)C6)CC5)CC4)ncc3F)cc21 (stereo not shown) [Compound 51] : > 10 µM

Data point: C[C@@]1(O)CCC[C@H]1n1c(=O)ccc2cnc(NC3CCN(S(=O)(=O)C4CCN(C5CCC6(CCN(c7cc8c(cc7F)C(=O)N(C7CCC(=O)NC7=O)C8=O)CC6)C5)CC4)CC3)nc21 (stereo partly shown) [Compound 81] ; IC50 = 0.101 to 1 µM

Query C[C@@]1(O)CCC[C@H]1n1c(=O)ccc2cnc(NC3CCN(S(=O)(=O)C4CCN(C(=O)C5CCN(c6cc7c(cc6F)C(=O)N(C6CCC(=O)NC6=O)C7=O)CC5)CC4)CC3)nc21 (stereo partly shown) [Compound 67] yields IC50 of 0.101 to 1 µM

# compound Cc1nc2c(F)cc(-c3nc(NC4CCN(S(=O)(=O)C5CN(CC6CN(c7cc8c(cc7F)C(=O)N(C7CCC(=O)NC7=O)C8=O)C6)C5)CC4)ncc3F)cc2n1C(C)C (stereo not shown) [Compound 109] ; its IC50 = 1 to 5 µM

Quick note, IC50 for CC(C)N1CCOc2c(F)cc(-c3nc(Nc4ccc(S(=O)(=O)NCCOCc5cn(CCOCCOCCNc6cc7c(cc6F)C(=O)N(C6CCC(=O)NC6=O)C7=O)nn5)cc4)ncc3F)cc21 (stereo not shown) [Compound 21] landed at 1 to 5 µM

Reported IC50 for Cc1nc2c(F)cc(-c3nc(Nc4ccc(S(=O)(=O)N5CCC6(CCN(CC7CCN(c8cc9c(cc8F)C(=O)N(C8CCC(=O)NC8=O)C9=O)CC7)CC6)CC5)cc4)ncc3F)cc2n1C(C)C (stereo not shown) [Compound 106] was 1 to 5 µM
